Target: hMC4-R (Homo sapiens (Human), UniProt P32245)
Sequence (P32245 whole entry): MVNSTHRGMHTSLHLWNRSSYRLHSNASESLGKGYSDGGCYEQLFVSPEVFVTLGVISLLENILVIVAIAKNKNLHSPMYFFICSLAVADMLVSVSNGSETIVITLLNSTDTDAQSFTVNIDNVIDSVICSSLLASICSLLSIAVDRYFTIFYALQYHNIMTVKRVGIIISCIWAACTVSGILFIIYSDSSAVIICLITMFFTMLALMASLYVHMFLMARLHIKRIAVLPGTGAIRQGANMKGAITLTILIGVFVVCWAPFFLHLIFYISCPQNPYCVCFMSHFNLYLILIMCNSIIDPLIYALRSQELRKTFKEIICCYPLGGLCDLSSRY
Experiment: High and low density hMC4-R functional assay (cAMP, HEK293-T-REx-MC4-R cells)
Type: cell-based
Conditions: 0.1 ng/mL Doxycycline (low density hMC4-R system)
Procedure: The cells were then dispensed into 96-well plates (BD 353916) in 198 μL (about 5×10^4) cells/well and incubated for 10 minutes at 37° C. The compound to be tested was diluted with DMSO to a final concentration of 1 mM. […] 120 μL of the 1 mM compound stock was pipetted in the second column on the plate. […] All assay samples were run in duplicate (i.e. each sample was in two low dox and two high dox plates, respectively). The plates were gently shaken and incubated for 15 minutes at 37° C.
pEC50: −log10 of the molar value.
Label satisfied when pEC50 >= 9; otherwise not satisfied.

Threshold query (pEC50 >= 9) on CC(=O)N[C@@H](CCCNC(=N)N)C(=O)N[C@H]1CCC(=O)NCCC[C@@H](C(N)=O)NC(=O)[C@H](Cc2c[nH]c3ccccc23)NC(=O)[C@H](CCCNC(=N)N)NC(=O)[C@@H](Cc2ccccc2Cl)NC(=O)[C@H]([C@@H](C)O)NC1=O
not satisfied

Threshold query (pEC50 >= 9) on CC(=O)N[C@H](CCCNC(=N)N)C(=O)N[C@H]1CCCNC(=O)CC[C@@H](C(N)=O)NC(=O)[C@H](Cc2c[nH]c3ccccc23)NC(=O)[C@H](CCCNC(=N)N)NC(=O)[C@@H](Cc2ccccc2Cl)NC(=O)[C@H](Cc2c[nH]cn2)NC1=O
satisfied

Threshold query (pEC50 >= 9) on COc1ccc(C[C@H]2NC(=O)[C@H](CCN)NC(=O)[C@@H](NC(=O)[C@H](CCCNC(=N)N)NC(C)=O)CCC(=O)NCCC[C@@H](C(N)=O)NC(=O)[C@H](Cc3c[nH]c4ccccc34)NC(=O)[C@H](CCCNC(=N)N)NC2=O)cc1OC
not satisfied

Threshold query (pEC50 >= 9) on CC(=O)N[C@H](CCCNC(=N)N)C(=O)N[C@H]1CCCNC(=O)CC[C@@H](C(N)=O)NC(=O)[C@H](Cc2c[nH]c3ccccc23)NC(=O)[C@H](CCCNC(=N)N)NC(=O)[C@@H](Cc2ccc(C#N)cc2)NC(=O)[C@H](Cc2c[nH]cn2)NC1=O
satisfied

Threshold query (pEC50 >= 9) on CC(=O)N[C@@H](CCCNC(=N)N)C(=O)N[C@H]1CCC(=O)NCCC[C@@H](C(N)=O)NC(=O)[C@H](Cc2c[nH]c3ccccc23)NC(=O)[C@H](CCCNC(=N)N)NC(=O)[C@@H](Cc2ccccc2Cl)NC(=O)[C@H]([C@@H](C)OCc2ccccc2)NC1=O
satisfied

Threshold query (pEC50 >= 9) on CC(=O)N[C@H](CCCNC(=N)N)C(=O)N[C@H]1CCCNC(=O)CC[C@@H](C(N)=O)NC(=O)[C@H](Cc2c[nH]c3ccccc23)NC(=O)[C@H](CCCNC(=N)N)NC(=O)[C@@H](Cc2ccc(F)c(F)c2)NC(=O)[C@H](Cc2c[nH]cn2)NC1=O
satisfied
